The compounds listed here are annotated with their cell viability.
test system: NOMO1; assay: cell viability relative to DMSO control; higher = less cytotoxic; settings: RPMI 5 mM glucose + 10% dialyzed FBS; 48 h; 0.569 µM

test.smiles	cell viability, %
COc1cc(N[S+](=O)([O-])c2ccc(N)cc2)nc(OC)n1	110
NC(=O)Nc1cc(-c2ccc(CN3CCOCC3)cc2)sc1C(N)=O	46.2
CCN(C)C(=O)Oc1cccc([C@H](C)N(C)C)c1	91.6
Cc1ncc([N+](=O)[O-])n1CCO	132
N\C1=N\C2=C(N=C[N]2COC(CO)CO)C(=O)N1	117
CCN1C[C@]2(OC(=O)c3ccccc3NC(C)=O)CC[C@H](OC)[C@@]34[C@@H]2C[C@@H]([C@@H]13)[C@@]1(O)C[C@H](OC)[C@H]2C[C@@H]4[C@]1(O)[C@H]2OC	109
